Test: protein stability index of a GFP-peptide fusion (GPS, HEK-293T) (PSI 1-6); higher = more stable;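 further: 24-mer peptide tiles fused after GFP, lentivirally expressed, FACS-sorted into six equal bins by GFP/DsRed ratio, decoded by Illumina sequencing, PSI is the read-weighted mean bin number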
Conditions: treatment: DMSO; c terminus: a fixed tail appended
Tick true if protein stability index is 3 or greater. Tick false if protein stability index is less than 3.

Field: example entries. Status: answers known.
residues	classLabel
FFLFIGVILFSSAVYFAEAEEAES [KCNA1]	false
QKILCSKSENARLVVQIDNAKLAA [KRT33B]	true

Then this sequence:
Ask: Has DYDLVLAEDEEMNRMHESMKLFDS [GNAI1] a recorded protein stability index greater than or equal to 3?
Reply: true

* * *

Test: protein stability index of a GFP-peptide fusion (GPS, HEK-293T) (PSI 1-6); higher = more stable
Conditions: treatment: MLN4924 1 uM, 8 h; c terminus: a fixed tail appended
Tick Yes if protein stability index is 3 or greater. Tick No if protein stability index is less than 3.

Field: example entries. Status: answers known.
residues	classLabel
FRDPIWSTWALYGRAVDQDKVLRF [MYORG]	No
MAEGDNRSTNLLAAETASLEEQLQ [ARL6IP1]	Yes
YGTQRTLILESQNWRYATGGWETV [FUT8]	No

Ask: Has GSEMGLSSHLQSSKAGPTRIFTSN [KLHL13] a recorded protein stability index greater than or equal to 3?
Reply: Yes

Ask: Has KLWDLRTTKCVRQYEGHVNEYAYL [DCAF4] a recorded protein stability index greater than or equal to 3?
Reply: No

Ask: Has VATNSAGTRYSAPANLYVRELREV [PTPRD] a recorded protein stability index greater than or equal to 3?
Reply: Yes

Ask: Has AVGVLLLGLVGYYIFRVANHQKDL [DHCR7] a recorded protein stability index greater than or equal to 3?
Reply: No

Ask: Has LQIDNARLAADDFRTKFETEQALR [KRT17] a recorded protein stability index greater than or equal to 3?
Reply: Yes

Ask: Has PRTNQWSPVVAMTSRRSGVGLAVV [KLHL20] a recorded protein stability index greater than or equal to 3?
Reply: No

Ask: Has ENLAHHLEIDSGVITLDPQTASRS [TRIM15] a recorded protein stability index greater than or equal to 3?
Reply: Yes

Ask: Has VVRLLLEHYRVQTQQTGTVRFDGY [FEM1B] a recorded protein stability index greater than or equal to 3?
Reply: No

Ask: Has AHNSNWYITFQSDTDAQQAFILKR [LARP4] a recorded protein stability index greater than or equal to 3?
Reply: No

Ask: Has DKKVRTIIIRSEVPGIFCAGADLK [AUH] a recorded protein stability index greater than or equal to 3?
Reply: No
